Experimental system: T1, SsoSSB WT (Saccharolobus solfataricus DSM 1617 …, UniProt Q97W73 1-148)
T1 sequence: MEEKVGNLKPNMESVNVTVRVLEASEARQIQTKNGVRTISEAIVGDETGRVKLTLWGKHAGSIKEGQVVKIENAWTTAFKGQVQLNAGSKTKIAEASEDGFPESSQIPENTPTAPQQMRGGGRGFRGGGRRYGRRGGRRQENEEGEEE
Experiment summary: native MS
Entries and their measured Kd follow.
Expressed in nM, but write only the number.

Asked: Looking for the measured Kd of TTTTTTTTTTTTTTT (ssDNA) [T15] , can you help?
Given back: 2080

Asked: Kd lookup needed for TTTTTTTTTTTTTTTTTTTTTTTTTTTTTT (ssDNA) [T30] , thanks.
Given back: 209
